# Substrate: O=C(O)C(=O)c1ccc(O)cc1
# measurement.description: initial rates of reductive amination, HPLC, Michaelis-Menten fit
# Format: biochemical, Corynebacterium glutamicum
# run.conditions: 0.5 mM NADPH, 10 mM NH4Cl, 50 mM Tris-HCl pH 8.0, 30 °C, HPGA 1-20 mM
endpoint.name: kcat (s⁻¹)
Answer format: numeric, s⁻¹ implied, no suffix.

{"protein": "CgDAPDH^BC621 (Corynebacterium glutamicum ATCC 13032; D154G/H244N/Q150L/R195M/T169P) (protein, five-fold mutant BC621 in pET28a, recombinant in E. coli BL21(DE3), HisTrap purified) MTNIRVAIVGYGNLGRSVEKLIAKQPDMDLVGIFSRRATLDTKTPVFDVADVDKHADDVDVLFLCMGSATDIPEQAPKFAQFACTVDTYDNHRDIPRHRQVMNEAATAAGNVALVSTGWDPGMFSINRVYAAAVLAEHQQHTFWGPGLSLGHSGALRRIPGVQKAVQYPLPSEDALEKARRGEAGDLTGKQTHKMQCFVVADAADHERIENDIRTMPDYFVGYEVEVNFIDEATFDSEHTGMPNGGHVITTGDTGGFNHTVEYILKLDRNPDFTASSQIAFGRAAHRMKQQGQSGAFTVLEVAPYLLSPENLDDLIARDV", "unit.string": "s⁻¹", "kcat": 0.0247}

Problem: For CgDAPDH^BC621 (Corynebacterium glutamicum ATCC 13032; D154G/H244N/Q150L/R195M/T169P/W144S) (protein, five-fold mutant BC621 in pET28a, recombinant in E. coli BL21(DE3), HisTrap purified) MTNIRVAIVGYGNLGRSVEKLIAKQPDMDLVGIFSRRATLDTKTPVFDVADVDKHADDVDVLFLCMGSATDIPEQAPKFAQFACTVDTYDNHRDIPRHRQVMNEAATAAGNVALVSTGWDPGMFSINRVYAAAVLAEHQQHTFSGPGLSLGHSGALRRIPGVQKAVQYPLPSEDALEKARRGEAGDLTGKQTHKMQCFVVADAADHERIENDIRTMPDYFVGYEVEVNFIDEATFDSEHTGMPNGGHVITTGDTGGFNHTVEYILKLDRNPDFTASSQIAFGRAAHRMKQQGQSGAFTVLEVAPYLLSPENLDDLIARDV , write its kcat.
Result: 0.0225

Problem: Give the measured kcat for CgDAPDH^BC621 (Corynebacterium glutamicum ATCC 13032; D120S/D154G/H244N/Q150L/R195M/T169P) (protein, five-fold mutant BC621 in pET28a, recombinant in E. coli BL21(DE3), HisTrap purified) MTNIRVAIVGYGNLGRSVEKLIAKQPDMDLVGIFSRRATLDTKTPVFDVADVDKHADDVDVLFLCMGSATDIPEQAPKFAQFACTVDTYDNHRDIPRHRQVMNEAATAAGNVALVSTGWSPGMFSINRVYAAAVLAEHQQHTFWGPGLSLGHSGALRRIPGVQKAVQYPLPSEDALEKARRGEAGDLTGKQTHKMQCFVVADAADHERIENDIRTMPDYFVGYEVEVNFIDEATFDSEHTGMPNGGHVITTGDTGGFNHTVEYILKLDRNPDFTASSQIAFGRAAHRMKQQGQSGAFTVLEVAPYLLSPENLDDLIARDV
Result: 0.0243
